molecular target: human D4 receptor (Homo sapiens, UniProt P21917); assay: D4 receptor binding, 3H-YM 09151-2, CHO cell membranes; settings: recombinant human D4 in CHO cells, 0.1 nM 3H-YM 09151-2, 25° C.
Sequence (P21917 whole entry): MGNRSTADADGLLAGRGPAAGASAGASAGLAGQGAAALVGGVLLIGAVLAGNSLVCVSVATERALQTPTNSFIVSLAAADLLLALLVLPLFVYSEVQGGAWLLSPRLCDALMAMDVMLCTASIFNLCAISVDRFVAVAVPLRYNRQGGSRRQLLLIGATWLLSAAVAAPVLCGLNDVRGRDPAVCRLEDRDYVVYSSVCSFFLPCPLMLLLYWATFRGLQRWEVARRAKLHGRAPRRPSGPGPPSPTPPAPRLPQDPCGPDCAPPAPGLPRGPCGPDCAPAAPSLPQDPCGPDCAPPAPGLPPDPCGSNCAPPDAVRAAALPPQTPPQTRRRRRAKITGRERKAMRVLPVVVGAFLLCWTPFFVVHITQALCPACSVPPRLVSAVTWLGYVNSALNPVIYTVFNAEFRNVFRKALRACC
property_measured: Ki (nM)
Numbers only, in nM.

Please review the entries below; each comes with its answer.
Which Ki value is on record for CC1(C)Cc2cccc3c2N1C(=O)C(N1CCN(Cc2ccc(Cl)cc2)CC1)CC3 (stereo not drawn) ?
19

Next: CC1Cc2cccc3c2N1C(=O)C(N1CCN(Cc2ccc(Cl)cc2)CC1)CC3 (mixture of isomers)
9

Below: the item to evaluate.
Which Ki value is on record for Cc1ccc(CN2CCN(C3CCc4cccc5c4N(CC5)C3=O)CC2)cc1 (stereo not drawn) ?
4
